Biological target: human PTH-2 receptor (human, UniProt P49190 25-550)
Sequence (P49190 25-550): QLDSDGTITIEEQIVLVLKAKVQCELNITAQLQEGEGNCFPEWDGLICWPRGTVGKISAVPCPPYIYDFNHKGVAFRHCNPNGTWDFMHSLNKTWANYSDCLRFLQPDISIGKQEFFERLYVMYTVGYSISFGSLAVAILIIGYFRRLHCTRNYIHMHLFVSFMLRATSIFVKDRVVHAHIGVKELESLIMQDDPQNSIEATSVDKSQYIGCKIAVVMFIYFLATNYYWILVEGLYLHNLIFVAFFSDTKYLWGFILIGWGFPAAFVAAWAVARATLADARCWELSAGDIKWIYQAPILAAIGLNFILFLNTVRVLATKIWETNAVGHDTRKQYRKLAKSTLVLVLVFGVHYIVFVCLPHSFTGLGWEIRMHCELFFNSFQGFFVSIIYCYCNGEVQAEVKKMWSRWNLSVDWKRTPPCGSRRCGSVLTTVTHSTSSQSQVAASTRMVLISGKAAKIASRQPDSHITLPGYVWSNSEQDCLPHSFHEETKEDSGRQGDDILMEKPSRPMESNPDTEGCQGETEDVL
Assay: competition binding vs 125I-rPTH(1-34), COS-7 cells
measuredQuantity: IC50 (nM)
// return numeric value only (unit: nM, not printed)

As a guide, the following entries are already answered.
binder="SMERVEWLRKKLQDA [PTH(17-31) 31 Val→Ala]" measuredquantity=IC50 val=3800
binder="SMERVEWLRKKLADV [PTH(17-31) 29 Gln→Ala]" measuredquantity=IC50 val=900
binder="SMEAVEWLRKKLQDV [PTH(17-31) 20 Arg→Ala]" measuredquantity=IC50 val=90500

Fill blank: measured IC50 of the binder SMERVEWLRKALQDV [PTH(17-31) 27 Lys→Ala] is ____.
1100

Fill blank: measured IC50 of the binder SMERVEWARKKLQDV [PTH(17-31) 24 Leu→Ala] is ____.
67500

Fill blank: measured IC50 of the binder SAERVEWLRKKLQDV [PTH(17-31) 18 Met→Ala] is ____.
1500

Fill blank: measured IC50 of the binder AMERVEWLRKKLQDV [PTH(17-31) 17 Ser→Ala] is ____.
1500

Fill blank: measured IC50 of the binder SMERVEWLRKKLQAV [PTH(17-31) 30 Asp→Ala] is ____.
1100

Fill blank: measured IC50 of the binder SMERVAWLRKKLQDV [PTH(17-31) 22 Glu→Ala] is ____.
600

Fill blank: measured IC50 of the binder SMERVEWLRKKLQDV [PTH(17-31)] is ____.
1000

Fill blank: measured IC50 of the binder SMERAEWLRKKLQDV [PTH(17-31) 21 Val→Ala] is ____.
1700

Fill blank: measured IC50 of the binder SMERVEWLAKKLQDV [PTH(17-31) 25 Arg→Ala] is ____.
3800

Fill blank: measured IC50 of the binder SMERVEWLRAKLQDV [PTH(17-31) 26 Lys→Ala] is ____.
8300

Fill blank: measured IC50 of the binder SMERVEWLRKKAQDV [PTH(17-31) 28 Leu→Ala] is ____.
9900

Fill blank: measured IC50 of the binder SMARVEWLRKKLQDV [PTH(17-31) 19 Glu→Ala] is ____.
700
